# Test system: K-562 leukemia
# assay_explanation: NCI-60 one-dose screen, 48 h
# measurement_setup: 10 µM unless noted
Compounds without any hit were thinned out: in the full panel of roughly 83,000, 20% have a hit. Active and inactive are the calls of the source. How the source made its calls: active means growth percent below 10; inactive means the rest.
Classes used: active, inactive

>>> label("BrC1=C(Br)C(Br)(Br)C(Br)=C1Br")
"inactive"
>>> label("O=C(CCCCCCCCC(=O)N/N=C\\c1ccccc1O)N/N=C\\c1ccccc1O")
"inactive"
>>> label("COc1cc(CNC(=O)CCCC/C=C/C(C)C)ccc1OCc1cn(-c2ccc([N+](=O)[O-])cc2)nn1")
"inactive"
>>> label("O=[N+]([O-])c1cc(C(F)(F)F)ccc1Sc1ccc(C(F)(F)F)cc1[N+](=O)[O-]")
"active"
>>> label("COc1ccc(-c2nn3c(-c4cc(F)c(Cl)cc4Cl)nnc3s2)cc1")
"inactive"
>>> label("CCCCCCCCCCCCCCCCCCOc1cccc(CC(=O)OCC[N+](CC)(CC)CC)c1")
"inactive"
>>> label("O=C(Oc1ccc(CO[N+](=O)[O-])cc1)c1ccccc1")
"active"
>>> label("Cc1ccc(C(=O)c2ccc(CC(=O)N=Nc3c(O)[nH]c4ccc(OC(F)(F)F)cc34)n2C)cc1")
"inactive"
>>> label("COc1cc(CO)cc2cc3ccccc3nc12")
"inactive"
>>> label("Cc1ccc(-c2nc3nc(-c4ccc(Cl)cc4)nc(N4CCCNCC4)c3o2)cc1")
"active"
>>> label("O=C(NNC(=S)Nc1ccccc1)c1ccncc1")
"inactive"
>>> label("CCCCn1c(C(=O)c2c[nH]c3ccccc23)n[nH]c1=S")
"inactive"
>>> label("CC(=O)Nc1c(I)c(NC(C)=O)c(I)c(C(=O)O)c1I")
"inactive"
>>> label("COc1cc2cc(NCc3ccncc3)nc(C)c2cc1OC")
"inactive"
>>> label("C[C@@H]1O[C@@H](O[C@H]2[C@@H](OC(=O)[C@]34CCC(C)(C)C[C@H]3C3=CC[C@@H]5[C@@]6(C)C[C@H](O)[C@H](O[C@@H]7O[C@H](CO)[C@@H](O)[C@H](O)[C@H]7O)[C@@](C)(CO)[C@@H]6CC[C@@]5(C)[C@]3(C)C[C@H]4O)OC[C@@H](O)[C@@H]2O)[C@H](O)[C@H](O[C@@H]2OC[C@@H](O)[C@H](O[C@@H]3OC[C@](O)(CO)[C@H]3O[C@@H]3OC[C@@H](O)[C@H](O)[C@H]3O)[C@H]2O)[C@H]1O[C@@H]1OC[C@](O)(CO)[C@H]1O")
"inactive"
>>> label("CC(=O)c1nn(-c2ccccc2)/c(=N/N=Cc2cn(-c3ccccc3)nc2-c2cc3ccccc3oc2=O)s1")
"inactive"
>>> label("Cn1cc(-c2nonc2-c2cn(C)c3ccc(Br)cc23)c2ccccc21")
"inactive"

====

# Tested on: LOX IMVI melanoma
# assay_explanation: NCI-60 one-dose screen, 48 h
# measurement_setup: 10 µM unless noted
The panel holds about 83,000 compounds, 20% with a hit somewhere; the sample as a whole holds those more often. Activity calls are given as the source filed them. Rule for the calls: active = growth percent below 10; inactive = the rest.
Outcomes: true (1) = active, false (0) = inactive

>>> label("CS(=O)(=O)Nc1cc(-c2ccc3ncnc(Nc4ccc(F)c(Cl)c4)c3c2)cnc1Cl")
"true (1)"
>>> label("Cc1ccc(-c2nc3nc(-c4ccc(Cl)cc4)nc(N4CCCNCC4)c3o2)cc1")
"true (1)"
>>> label("CCOC(=O)c1nc2c3ccccc3cnn2c1C(=O)c1ccc(OC)cc1")
"false (0)"
>>> label("O=C(Nc1ncc(Cc2cccc(C(F)(F)F)c2)s1)c1ccc2c(c1)OCCO2")
"false (0)"
>>> label("Cc1c(O)c(O)cc2c3c(oc12)CC(c1ccc2c(c1)OCO2)CC3=O (stereo not given)")
"false (0)"

====

# Test system: HOP-62 NSCLC
# assay_explanation: NCI-60 one-dose screen, 48 h (100 = growth as untreated, 0 = no growth, -100 = all killed)
# measurement_setup: 10 µM unless noted
About 83,000 compounds went through this panel and 20% of them were active in at least one assay; those are over-represented in the sample as a whole.
growth reference
attribute_measured: growth (%)

>>> observed_result("COc1ccc(-c2cc(-c3cc(OC)c(OC)c(OC)c3)c(C#N)c(=O)n2CCCCC(=O)O)cc1")
96.8
>>> observed_result("Cc1ccc(C(=O)Nc2nc3c(s2)CN(Cc2ccccc2)CC3)cn1")
88.5
>>> observed_result("CCOC(=O)n1cc(-c2nonc2-c2cn(C)c3ccc(OC)cc23)c2cc(F)ccc21")
72.6
>>> observed_result("O=C(CCCOc1ccc(Br)cc1)Nc1ncc(Cc2ccc(F)cc2)s1")
75.3
>>> observed_result("Cc1nc(Nc2ncc(C(=O)Nc3c(C)cccc3Cl)s2)cc(N2CCN(CCO)CC2)n1")
12

====

# System: SK-MEL-5 melanoma
# assay_explanation: NCI-60 one-dose screen, 48 h (100 = growth as untreated, 0 = no growth, -100 = all killed)
# measurement_setup: 10 µM unless noted
The panel holds about 83,000 compounds, 20% with a hit somewhere; the sample as a whole holds those more often.
Would you please tag the item Criterion met when its growth is 70% or above, and Criterion not met when it is below?

>>> label("COc1ccc(Oc2nc(Nc3ccc(N4CCOCC4)cc3)ncc2NC(=O)c2cccc(C(F)(F)F)c2)cc1")
"Criterion met"
>>> label("Nc1ccc(/C=N/Nc2ccnc3c(N)cccc23)c2cccnc12")
"Criterion met"
>>> label("CCCCCCCCCCCCCCCCCCOc1cccc(CC(=O)OCC[N+](CC)(CC)CC)c1")
"Criterion not met"
>>> label("COc1ccc(-c2nc(Cl)c3c(C)nn(-c4ccc(F)cc4)c3n2)cc1")
"Criterion met"

====

# Tested on: 786-0 renal
# assay_explanation: NCI-60 one-dose screen, 48 h
# measurement_setup: 100 µM
The panel holds about 83,000 compounds, 20% with a hit somewhere; the sample as a whole holds those more often. Active and inactive are the calls of the source. The calls were made as follows: active = growth percent below 10; inactive = the rest.
Possible outcomes: active, inactive

>>> label("CC(=O)/C=C/c1ccc(N(C)Cc2ccc(C(C)(C)C)cc2)cc1")
"active"
>>> label("COc1ccc(C(=O)/C=C/c2ccc(OCc3cccc(C(F)(F)F)c3)c(OC)c2)cc1OC")
"active"
>>> label("COc1ccc(C(=O)/C=C/c2ccc(OCc3ccc(Cl)cc3)cc2)cc1OC")
"active"
>>> label("CC(=O)/C=C/c1ccc(OCc2ccc(Cl)cc2)cc1")
"inactive"

====

# Test system: NCI-H23 lung
# assay_explanation: NCI-60 one-dose screen, 48 h
# measurement_setup: 10 µM unless noted
The panel holds about 83,000 compounds, 20% with a hit somewhere; the sample as a whole holds those more often. Active and inactive are the calls of the source. Rule for the calls: active = growth percent below 10; inactive = the rest.
Possible outcomes: active, inactive

>>> label("Cc1ccc(S(=O)(=O)OC[C@@]2(C)CC[C@]3(C)CC[C@]4(C)C(=C3C2)C=C[C@@H]2[C@@]3(C)CCCNC(C)(C)[C@@H]3CC[C@]24C)cc1")
"inactive"
>>> label("Cc1ccc(Nc2nc(-c3cc(O)c(C)c(C)c3O)cs2)cc1")
"inactive"
>>> label("C=C1CCC2C3(C)COC(c4ccc(NC(C)=O)cc4)OC3CCC2(C)C1C/C=C1/C(=O)OCC1O (stereo unspecified)")
"inactive"
>>> label("N#Cc1c(-c2cccc(F)c2)cc(-c2cccnc2)[nH]c1=O")
"inactive"
>>> label("COc1cc2c(cc1OCCCOC1=C=C=C(c3ccc4c(c3)c3cc(-c5ccc(OCCCOc6cc7c(cc6OC)C(=O)N6CCC[C@H]6C=N7)cc5)ccc3n4S(=O)(=O)c3ccc(C)cc3)C=C1)N=C[C@@H]1CCCN1C2=O")
"inactive"
>>> label("C=CCN1C=CC(=O)[C@H](O[Si](C)(C)C(C)(C)C)[C@@H]1/C=C/c1ccccc1")
"active"
>>> label("O=C1CCc2c(sc3[nH]c(=S)n(Cc4ccc(Cl)cc4)c(=O)c23)C1")
"active"
>>> label("COc1ccc(/C=C2/C(=O)N=C3N2NC(c2ccccc2)=CN3c2ccccc2)cc1")
"inactive"
>>> label("CCN(CC)CC(=O)Nc1ccc2ncnc(Nc3ccc(Oc4cccc(F)c4)c(Cl)c3)c2c1")
"inactive"
>>> label("CCOC(=O)CCCn1c(-c2ccccc2)cc(-c2ccccc2)c(C#N)c1=O")
"inactive"
>>> label("Cc1ccc(-c2nc3nc(-c4ccccc4)nc(N4CCCNCC4)c3o2)cc1")
"inactive"
>>> label("Clc1ccc(CNc2ccc3nc(CCC4CCCCC4)[nH]c3c2)cc1")
"inactive"
>>> label("CN1CCN(Cc2ccc(NC(=O)c3nc4ccc5[nH]ncc5c4c4c3CCCC4)cc2C(F)(F)F)CC1")
"active"
>>> label("Cc1ccc(/C=C/c2c(C(=O)/C=C/c3ccccc3)c(C)nc3ccccc23)cc1")
"inactive"
>>> label("COC(=O)c1[nH]nc(OC)c1C1(C(C#N)c2nc3ccccc3s2)CCCc2ccccc21 (stereo unspecified)")
"inactive"
>>> label("CCNC(=O)Oc1ccc(/C(=C(/C)Cc2ccc(OC)cc2)c2ccc(OCCN(CC)CC)cc2)cc1")
"inactive"
>>> label("Cc1ccc(-c2nc3nc(-c4ccc(Br)cc4)nc(N4CCCNCC4)c3o2)cc1")
"inactive"
>>> label("Cn1c(=O)c2c(nc(Nc3cc(=O)[nH]c(=O)[nH]3)n2Cc2ccccc2)n(C)c1=O")
"inactive"
>>> label("O=S(=O)(O)c1ccc(N=Nc2ccc(N=Nc3cccc4ccccc34)c(S(=O)(=O)O)c2)cc1")
"inactive"
>>> label("Cc1ccc2c(c1)C(C)Cc1c(ncnc1-n1cnc3cc(C)ccc31)N2C (stereo unspecified)")
"inactive"
>>> label("CN1CCN(C(=O)OCc2nc3c(N4CCOCC4)nc(Cl)nc3n2C)CC1")
"active"
>>> label("O=C(Nc1ccc(F)cc1)c1cc2cc(Nc3nc(-c4ccccc4)nc4ccccc34)ccc2oc1=O")
"inactive"
>>> label("COc1cc(/C=C2\\CCC/C(=C\\c3cc(CN4CCCC4)c(O)c(OC)c3)C2=O)cc(CN2CCCC2)c1O")
"inactive"
>>> label("COc1ccc(/C(C)=C(\\c2ccc(OCCN3CCCCCC3)cc2)c2ccc(OC(=O)C3CCCCC3)cc2)cc1")
"active"
>>> label("Nc1[nH]nc(Nc2ccccc2)c1-c1nc2ccccc2s1")
"inactive"
>>> label("CC(=O)c1c(C)nc(SCC(=O)Nc2ccc(Cl)cc2)n1-c1ccc(Cl)cc1")
"inactive"
>>> label("CCOC(=O)c1c(-c2ccc(OC)cc2)c(C#N)c2c(C#N)c(N)nn2c1N")
"inactive"
>>> label("CN1CCN(c2ccc(Nc3ncc(C(N)=O)c(NCCCNC(=O)C4CCC4)n3)cc2)CC1")
"inactive"
>>> label("Cc1ccc(-c2nc([P+](c3ccccc3)(c3ccccc3)c3ccccc3)c(Nc3ccccc3)o2)cc1")
"active"
>>> label("COc1ccc(/C=N/NC(=O)CN2CCN(c3cc4c(cc3F)c(=O)c(C(=O)O)cn4C3CC3)CC2)cc1O")
"inactive"
>>> label("Nc1ccc(/C=N/Nc2ccnc3c(N)cccc23)c2cccnc12")
"active"
>>> label("CNC(=O)c1cc(Oc2ccc3nc(NC(=O)Nc4ccc(C(F)(F)F)cc4)sc3c2)ccn1")
"inactive"
>>> label("CCCCC1COc2cccc3c2N1C=C/C3=C\\C(=O)N(C)c1cccc(Cl)c1 (stereo unspecified)")
"inactive"
>>> label("CC(=O)N1N=C(c2ccc(Nc3nc(Nc4ccc(F)cc4)nc(Nc4ccc(Cl)cc4)n3)cc2)CC1c1ccc(N(C)C)cc1 (stereo unspecified)")
"inactive"
>>> label("O=c1oc2c(Br)cc(Br)cc2cc1-c1cc(-c2ccc(-c3cc(-c4cc5cc(Br)cc(Br)c5oc4=O)nc(-c4cc5cc(Br)cc(Br)c5oc4=O)c3)cc2)cc(-c2cc3cc(Br)cc(Br)c3oc2=O)n1")
"inactive"
>>> label("CCOC(=O)c1nnn(Cc2cc(=O)oc3c2ccc2ccccc23)c1C")
"inactive"
